- METHOD SUMMARY: in vivo
- APPLIED CONDITIONS: dog, 4 mg/kg
ENDPOINT LABEL: Kp at 120 min
Numbers only.

compound COc1ccc2c3c1O[C@H]1C[C@@H](OC(=O)c4ccccc4)C=C[C@@]31CCN(C)C2 , Kp at 120 min observed: 9

====

- METHOD SUMMARY: in vivo
- APPLIED CONDITIONS: dog
ENDPOINT LABEL: half-life (h)
Numbers only, in h.

Consider COc1ccc2c3c1O[C@H]1C[C@@H](OC(=O)c4ccccc4)C=C[C@@]31CCN(C)C2 . Its measured half-life is 1.5

====

- METHOD SUMMARY: Dog study, single intranasal dose: plasma and brain levels
- APPLIED CONDITIONS: in vivo, 4 mg/kg
ENDPOINT LABEL: Kp at 120 min

Kp at 120 min reading for COc1ccc2c3c1O[C@H]1C[C@@H](O)C=C[C@@]31CCN(C)C2 [galantamine] : 1 to 1.5
